TESTED ON: recombinant CSN^ΔCSNAP complex (UniProt Q13098 1-491; Q9UNS2 1-423; Q92905 1-334; Q99627 2-209)
ASSAY PROCEDURE: SPR
Where no end group is shown, it is not given here.

BINDER	Kd / nM
EFFNDFEDLFDDDDIQ-biotin [D42E C-CSNAP peptide, C-terminally biotinylated]	2.5
DFFNDFEDLFDDDDIQ-biotin [16AA C-CSNAP peptide, C-terminally biotinylated]	0.4
full-length CSNAP, C-terminally biotinylated (natural protein) MKPAVDEMFPEGAGPYVDLDEAGGSTGLLMDLAANEKAVHADFFNDFEDLFDDDDIQ-biotin	0.068
AVHADFFNDFEDLFDDDDIQ-biotin [20AA C-CSNAP peptide, C-terminally biotinylated]	0.41

Source listed as paper PMC10355216.
